- target.of.assay: human prostanoid FP receptor (Homo sapiens)
- Construct: expressed in transfected cells
- Sequence (P43088 whole entry): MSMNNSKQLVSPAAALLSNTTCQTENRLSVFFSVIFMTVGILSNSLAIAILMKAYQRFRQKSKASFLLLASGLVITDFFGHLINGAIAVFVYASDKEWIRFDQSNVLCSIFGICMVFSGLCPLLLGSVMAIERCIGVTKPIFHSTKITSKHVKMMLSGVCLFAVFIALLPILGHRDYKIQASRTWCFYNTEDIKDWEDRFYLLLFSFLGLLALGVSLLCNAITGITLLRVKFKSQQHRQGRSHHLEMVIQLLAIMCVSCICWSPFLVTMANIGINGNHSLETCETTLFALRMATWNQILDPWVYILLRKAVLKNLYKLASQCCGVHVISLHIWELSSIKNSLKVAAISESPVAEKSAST
- assay.explanation: FLIPR Ca2+ signaling PG antagonist assay, FP stable cell line
- Format: cell-based
- test.parameters: HEK-293 EBNA cells, human recombinant FP, no exogenous G-protein; standard agonist 17-phenyl-PGF2α
experimental.endpoint: Kb (nM)
Express the result in nM but write the number alone.

Q. Which Kb is listed for Cc1cn(Cc2cc(OC(F)(F)F)ccc2OCC(C)C)c2ccc(C(=O)O)cc12 ?
A. 330

Q. Which Kb is listed for CC1(COc2ccc(Br)cc2Cn2ncc3cc(C(=O)O)ccc32)CC1 ?
A. 16

* * *

- target.of.assay: human prostanoid EP2 receptor (Homo sapiens, UniProt P43116)
- Construct: expressed in transfected cells
- Sequence (P43116 whole entry): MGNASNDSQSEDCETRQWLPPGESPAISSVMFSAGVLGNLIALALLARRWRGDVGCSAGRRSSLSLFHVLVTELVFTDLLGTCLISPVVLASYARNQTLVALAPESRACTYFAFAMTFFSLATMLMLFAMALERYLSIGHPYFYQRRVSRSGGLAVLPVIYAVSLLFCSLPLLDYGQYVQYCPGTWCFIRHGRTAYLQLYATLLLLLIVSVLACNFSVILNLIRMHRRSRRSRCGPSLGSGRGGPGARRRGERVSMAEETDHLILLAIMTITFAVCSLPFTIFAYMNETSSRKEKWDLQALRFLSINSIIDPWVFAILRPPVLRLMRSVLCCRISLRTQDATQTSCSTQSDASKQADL
- assay.explanation: FLIPR Ca2+ signaling PG antagonist assay, EP2 stable cell line
- Format: cell-based
- test.parameters: HEK-293 EBNA cells, human recombinant EP2 with chimeric Gqs; standard agonist PGE2
# key: entry, value: Kb
Express the result in µM but write the number alone.

1) CCC(CC)COc1ccc(OC(F)(F)F)cc1Cn1cc(C)c2cc(C(=O)O)ccc21	9.2
2) Cc1nn(Cc2cc(Br)ccc2OCC2(C)CC2)c2ccc(C(=O)O)cc12	9.2

Next:
Q. Which Kb is listed for Cc1cn(Cc2cc(OC(F)(F)F)ccc2OCC(C)C)c2ccc(C(=O)O)cc12 ?
A. 6.4
